# key: entry, value: IC50
Biological target: DPP-4 enzyme (Homo sapiens, UniProt P27487)
Sequence (P27487 whole entry): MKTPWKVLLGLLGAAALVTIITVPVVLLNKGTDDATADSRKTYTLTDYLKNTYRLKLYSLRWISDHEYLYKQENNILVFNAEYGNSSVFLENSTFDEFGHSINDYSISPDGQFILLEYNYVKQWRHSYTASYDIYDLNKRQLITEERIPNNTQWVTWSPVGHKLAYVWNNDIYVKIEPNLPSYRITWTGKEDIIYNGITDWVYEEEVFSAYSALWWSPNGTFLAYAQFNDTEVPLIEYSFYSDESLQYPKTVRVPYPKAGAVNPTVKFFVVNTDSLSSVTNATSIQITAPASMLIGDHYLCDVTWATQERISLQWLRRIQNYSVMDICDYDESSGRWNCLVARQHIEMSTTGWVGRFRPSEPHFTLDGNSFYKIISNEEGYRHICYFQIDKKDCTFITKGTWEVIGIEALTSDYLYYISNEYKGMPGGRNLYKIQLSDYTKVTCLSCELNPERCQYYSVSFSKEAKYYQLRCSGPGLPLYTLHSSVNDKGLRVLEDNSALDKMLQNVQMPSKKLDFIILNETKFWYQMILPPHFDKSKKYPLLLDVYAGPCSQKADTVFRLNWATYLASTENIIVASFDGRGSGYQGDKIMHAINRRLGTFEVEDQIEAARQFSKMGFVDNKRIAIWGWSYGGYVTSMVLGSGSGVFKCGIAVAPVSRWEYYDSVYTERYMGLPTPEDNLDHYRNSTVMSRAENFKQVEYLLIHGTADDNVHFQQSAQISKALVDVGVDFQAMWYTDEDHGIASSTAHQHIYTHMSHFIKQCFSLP
Test: biochemical

# Compound, System Name, IC50, nM
rows = [
    ("NNc1ncc(S(=O)(=O)NC(=S)Nc2ccccc2)c(=O)[nH]1 [Compound 6a]", "DPP-4 enzyme (Homo sapiens, UniProt P27487)", 47),
    ("Cc1ccc(NC(=S)NS(=O)(=O)c2cnc(N/N=C/c3ccccc3)[nH]c2=O)cc1 [Compound 8b]", "DPP-4 enzyme (Homo sapiens, UniProt P27487)", 75),
    ("Cc1ccc(NC(=S)NS(=O)(=O)c2cnc(NN)[nH]c2=O)cc1 [Compound 6b]", "DPP-4 enzyme (Homo sapiens, UniProt P27487)", 71),
    ("Cc1ccc(NC(=S)NS(=O)(=O)C2=CNC3SC(=O)CN3C2=O)cc1 (stereo not shown) [Compound 4b]", "DPP-4 enzyme (Homo sapiens, UniProt P27487)", 63),
]
